tested on: Liver; test: Intrinsic clearance in human liver microsomes in presence of NADPH by LC-MS/MS analysis; assay type: ADME, microsome
readout name: CLH (µL/min/mg)
Write the value in µL/min/mg as a bare number.

Past entries and their recorded results:
molecule=CC(=O)O[C@H]1[C@H]2[C@H]([C@@H]3[C@@H](O)[C@@H]4[C@H]([C@H](C)[C@H]5O[C@]56OC(=O)[C@@](C)(O)[C@]46C)[C@@]3(C)[C@H]1OC(C)=O)[C@@H](O)C(=O)[C@H]1C[C@@H]3O[C@@H]3[C@H](OC(C)=O)[C@]21C readout_name=CLH recorded_number=15
molecule="CC(=O)CC(c1ccccc1)c1c(O)c2ccccc2oc1=O (stereo not drawn)" readout_name=CLH recorded_number=0

For the next question, use this molecule.
Lookup: What reported CLH corresponds to CC(=O)O[C@@H]1[C@H]2[C@H]3[C@H]([C@H](OC(C)=O)[C@H](OC(C)=O)[C@]2(C)[C@H]2[C@H](C)[C@H]4O[C@]45OC(=O)[C@@](C)(O)[C@]5(C)[C@H]12)[C@]1(C)[C@H](C[C@@H]2O[C@@H]2[C@@H]1OC(C)=O)C(=O)[C@@H]3O on Liver?
Found: 8.3

Data provenance is ChEMBL document CHEMBL4052593.
